Hey, just so you know, these numbers are from ChEMBL document CHEMBL3808337.

Test: Cmax in Sprague-Dawley rat blood at 5 mg/kg, po after 24 hrs by ESI-LCMS/MS analysis
Assay type: ADME, organism-based
Design: dose 5 mg/kg, route oral

{"Record smiles": "COc1cc(-c2cnn(C)c2)ccc1Nc1ncc2ccnc(N[C@@H](C)C(C)(C)C)c2n1", "Cmax": "560 nM"}

---

Experiment: AUC in Sprague-Dawley rat blood at 5 mg/kg, po after 24 hrs by ESI-LCMS/MS analysis
Format: ADME, organism-based
Set-up: time < 24 hr, dose 5 mg/kg, route oral

{"Record smiles": "COc1cc(-c2cnn(C)c2)ccc1Nc1ncc2ccnc(N[C@@H](C)C(C)(C)C)c2n1", "AUC at 24 h [µM·h]": 9.3}

---

Assay: Cmax in Balb/C mouse blood at 5 mg/kg, po after 24 hrs by ESI-LCMS/MS analysis
Format: ADME, organism-based
Set-up: dose 5 mg/kg, route oral

{"Record smiles": "COc1cc(-c2cnn(C)c2)ccc1Nc1ncc2ccnc(N[C@@H](C)C(C)(C)C)c2n1", "Result unit": "nM", "Cmax": 770}

---

Test: AUC in Balb/C mouse blood at 5 mg/kg, po after 24 hrs by ESI-LCMS/MS analysis
Assay type: ADME, organism-based
Set-up: time < 24 hr, dose 5 mg/kg, route oral
Attribute measured: AUC at 24 h (µM·h)

{"Record smiles": "COc1cc(-c2cnn(C)c2)ccc1Nc1ncc2ccnc(N[C@@H](C)C(C)(C)C)c2n1", "Experimental value": 4.8}

---

The molecules listed here are annotated with their pIC50.
Biological target: CDK2/Cyclin A2 (Homo sapiens, UniProt P24941)
pIC50: −log10 of the molar value.
Attribute measured: pIC50

{"Record smiles": "CC(C)Oc1cc(-c2cnn(C)c2)ccc1Nc1ncc2ccnc(-c3cnn(C)c3)c2n1", "Result comparator": "<", "Experimental value": 5.00}
{"Record smiles": "COc1cc(-c2cnn(C)c2)ccc1Nc1ncc2ccnc(SC3CCCCC3)c2n1", "Result comparator": "<", "Experimental value": 5.00}
{"Record smiles": "CCOc1cc(-c2cnn(C)c2)ccc1Nc1ncc2ccnc(-c3cnn(C)c3)c2n1", "Result comparator": "<", "Experimental value": 4.35}
{"Record smiles": "COc1cc(-c2cnn(C)c2)ccc1Nc1ncc2ccnc(NC3CCCCC3)c2n1", "Result comparator": "=", "Experimental value": 6.72}
{"Record smiles": "COc1ccc(Nc2cc3c(-c4cnn(C)c4)cccc3cn2)cc1", "Result comparator": "=", "Experimental value": 5.91}
{"Record smiles": "COc1ccc(Nc2cc3c(-c4ccco4)cccc3cn2)cc1", "Result comparator": "=", "Experimental value": 4.51}

---

Assay: Oral bioavailability in Sprague-Dawley rat at 5 mg/kg after 24 hrs by ESI-LCMS/MS analysis
Type: ADME, organism-based
Details: in vivo

{"Record smiles": "COc1cc(-c2cnn(C)c2)ccc1Nc1ncc2ccnc(N[C@@H](C)C(C)(C)C)c2n1", "Result unit": "%", "bioavailability": 100}

---

Experiment: Clearance in Balb/C mouse blood at 5 mg/kg, iv or po after 24 hrs by ESI-LCMS/MS analysis
Format: ADME, organism-based

{"Record smiles": "COc1cc(-c2cnn(C)c2)ccc1Nc1ncc2ccnc(N[C@@H](C)C(C)(C)C)c2n1", "Result unit": "mL/min/kg", "clearance": 28}
